Below: a set of entries, each annotated with reported composite z-score.
Test system: Neuregulin-1 EGF-like domain
assay-info: small molecules binding NRG1 EGF domain – biochemical, small-molecule microarray, 635 nm fluorescence, primary screen (AID 1081);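 note: binding of the protein to compounds printed on small-molecule microarray slides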
condition-description: higher = more signal
API doc: respond with a numeric literal and nothing else, no unit.

// lookup composite z-score for CC(=O)NCCCC[C@@H]1NC(=O)[C@H]2C[C@@H](C(=O)NCCCCCN)[C@@H](c3cccc(OCCO)c3)N2C1=O
0.581

###

Overview of reported z-score across a group of compounds:
assay-info: FRG1 expression reporter modulators in myotubes – cell-based, C2C12 myotubes, firefly/Renilla luciferase, luminescence, FRG1 inhibition for FSHD, primary screen (AID 1084)
condition-description: FRG1 promoter luciferase, higher = more signal, called active from +8 up or from −8 down
Activity calls are given as the source filed them.

COCCOC(=O)N1C(=O)[C@@]2(c3cc(C#CCNC(N)=O)ccc31)[C@H](C(=O)N1CCCCCCC1)[C@H]1C(=O)O[C@H](c3ccccc3)[C@H](c3ccccc3)N1[C@@H]2c1ccc(OCCO)cc1	-0.557 (inactive)
CN(C)CCCN1C(=O)[C@@]2(Cc3ccccc31)c1ccccc1C(=O)N(Cc1ccccc1)[C@H]2c1ccc(CO)cc1	0.878 (inactive)

We next turn to a different compound, shown below.
So what's the measured z-score for this one? CC1C=C(CCCO)C=C(C(=O)OCCS(C)(=O)=O)C(C(=O)OCCS(C)(=O)=O)=CN1Cc1cccc(OC(F)(F)F)c1 (stereo not drawn)
0.416 (inactive)
